Data origin: PubChem BioAssay AID1963965

For each record, write down the corresponding viability, T/C.
System: 996289-038-R-J1-PDC spheroid viability;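 further: luminescence used as a proxy for viable cell amount; spheroids exposed to compounds for seven days before viability read; percent viability relative to DMSO vehicle control as 100%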
Test: Anticancer human tumor 996289-038-R-J1-PDC patient-derived colon adenocarcinoma cell line growth inhibition [PI3K]
Conditions: second compound 1 µM; first compound 0.001 µM; active compounds read low; spheroids with HUVEC and MSC
Number in %, nothing else.

State its viability, T/C on 996289-038-R-J1-PDC spheroid viability: CC(C)n1nc(-c2ccc3oc(N)nc3c2)c2c(N)ncnc21 + CC(Nc1ccc2c(c1)OCCn1cc(N3C(=O)OCC3C(F)F)nc1-2)C(N)=O
60.9

Form field - read-out: viability, T/C; system: 996289-038-R-J1-PDC spheroid viability; submitted item: Cn1ncnc1[C@H]1c2n[nH]c(=O)c3cc(F)cc(c23)N[C@@H]1c1ccc(F)cc1 + CC(Nc1ccc2c(c1)OCCn1cc(N3C(=O)OCC3C(F)F)nc1-2)C(N)=O;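 further: luminescence used as a proxy for viable cell amount; spheroids exposed to compounds for seven days before viability read; percent viability relative to DMSO vehicle control as 100%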
59.8

Requested read-out viability, T/C, target or system 996289-038-R-J1-PDC spheroid viability, entry CC(=O)c1c(C)c2cnc(Nc3ccc(N4CCNCC4)cn3)nc2n(C2CCCC2)c1=O + CC(Nc1ccc2c(c1)OCCn1cc(N3C(=O)OCC3C(F)F)nc1-2)C(N)=O;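 further: luminescence used as a proxy for viable cell amount; spheroids exposed to compounds for seven days before viability read; percent viability relative to DMSO vehicle control as 100%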
72.5
